Biological target: Rat Kidney Medullary V2 Receptors (vasopressin V2) (Rattus norvegicus)
Construct: Medullary tissues from rat kidneys are dissected out; from tissue; host or cells: rat kidney medulla membranes
Sequence (Q00788 whole entry): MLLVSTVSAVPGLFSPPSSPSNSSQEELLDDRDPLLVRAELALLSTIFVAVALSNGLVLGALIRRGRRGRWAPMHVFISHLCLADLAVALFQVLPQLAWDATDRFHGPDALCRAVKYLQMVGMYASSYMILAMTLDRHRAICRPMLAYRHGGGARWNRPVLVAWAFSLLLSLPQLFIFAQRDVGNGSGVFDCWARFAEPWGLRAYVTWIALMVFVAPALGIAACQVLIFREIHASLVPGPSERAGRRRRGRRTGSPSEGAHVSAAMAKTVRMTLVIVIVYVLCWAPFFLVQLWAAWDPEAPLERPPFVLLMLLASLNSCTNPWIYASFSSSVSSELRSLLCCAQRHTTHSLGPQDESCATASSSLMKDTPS
Test: Binding Assay to Rat Kidney Medullary V2 Receptors
Conditions: rat kidney medullary V2, [3H]Arg8-vasopressin
Reported IC50 values for a set of compounds
Use µM as the unit, but write only the number.

Examples with their reported IC50 follow.
| compound | result |
| --- | --- |
| O=C(Nc1ccc(C(=O)N2CCCCc3sccc32)cc1)c1ccc(Cl)c(Cl)c1 [Example 1] | 0.44 |
| CCCCc1ccc(C(=O)Nc2ccc(C(=O)N3CCCCc4sccc43)cc2)cc1 [Example 6] | 3.4 |
| CC(C)(C)c1ccc(C(=O)Nc2ccc(C(=O)N3CCCCc4sccc43)cc2)cc1 [Example 5] | 21.4 |

Field: next compound
Request the reported IC50 associated with Cc1c(F)cccc1C(=O)Nc1ccc(C(=O)N2CCCC(=O)c3sccc32)cc1 [Example 155]
0.25
